# MEASURED_ON: ROS (Homo sapiens (Human), UniProt P08922)
# Sequence (P08922 28-2347): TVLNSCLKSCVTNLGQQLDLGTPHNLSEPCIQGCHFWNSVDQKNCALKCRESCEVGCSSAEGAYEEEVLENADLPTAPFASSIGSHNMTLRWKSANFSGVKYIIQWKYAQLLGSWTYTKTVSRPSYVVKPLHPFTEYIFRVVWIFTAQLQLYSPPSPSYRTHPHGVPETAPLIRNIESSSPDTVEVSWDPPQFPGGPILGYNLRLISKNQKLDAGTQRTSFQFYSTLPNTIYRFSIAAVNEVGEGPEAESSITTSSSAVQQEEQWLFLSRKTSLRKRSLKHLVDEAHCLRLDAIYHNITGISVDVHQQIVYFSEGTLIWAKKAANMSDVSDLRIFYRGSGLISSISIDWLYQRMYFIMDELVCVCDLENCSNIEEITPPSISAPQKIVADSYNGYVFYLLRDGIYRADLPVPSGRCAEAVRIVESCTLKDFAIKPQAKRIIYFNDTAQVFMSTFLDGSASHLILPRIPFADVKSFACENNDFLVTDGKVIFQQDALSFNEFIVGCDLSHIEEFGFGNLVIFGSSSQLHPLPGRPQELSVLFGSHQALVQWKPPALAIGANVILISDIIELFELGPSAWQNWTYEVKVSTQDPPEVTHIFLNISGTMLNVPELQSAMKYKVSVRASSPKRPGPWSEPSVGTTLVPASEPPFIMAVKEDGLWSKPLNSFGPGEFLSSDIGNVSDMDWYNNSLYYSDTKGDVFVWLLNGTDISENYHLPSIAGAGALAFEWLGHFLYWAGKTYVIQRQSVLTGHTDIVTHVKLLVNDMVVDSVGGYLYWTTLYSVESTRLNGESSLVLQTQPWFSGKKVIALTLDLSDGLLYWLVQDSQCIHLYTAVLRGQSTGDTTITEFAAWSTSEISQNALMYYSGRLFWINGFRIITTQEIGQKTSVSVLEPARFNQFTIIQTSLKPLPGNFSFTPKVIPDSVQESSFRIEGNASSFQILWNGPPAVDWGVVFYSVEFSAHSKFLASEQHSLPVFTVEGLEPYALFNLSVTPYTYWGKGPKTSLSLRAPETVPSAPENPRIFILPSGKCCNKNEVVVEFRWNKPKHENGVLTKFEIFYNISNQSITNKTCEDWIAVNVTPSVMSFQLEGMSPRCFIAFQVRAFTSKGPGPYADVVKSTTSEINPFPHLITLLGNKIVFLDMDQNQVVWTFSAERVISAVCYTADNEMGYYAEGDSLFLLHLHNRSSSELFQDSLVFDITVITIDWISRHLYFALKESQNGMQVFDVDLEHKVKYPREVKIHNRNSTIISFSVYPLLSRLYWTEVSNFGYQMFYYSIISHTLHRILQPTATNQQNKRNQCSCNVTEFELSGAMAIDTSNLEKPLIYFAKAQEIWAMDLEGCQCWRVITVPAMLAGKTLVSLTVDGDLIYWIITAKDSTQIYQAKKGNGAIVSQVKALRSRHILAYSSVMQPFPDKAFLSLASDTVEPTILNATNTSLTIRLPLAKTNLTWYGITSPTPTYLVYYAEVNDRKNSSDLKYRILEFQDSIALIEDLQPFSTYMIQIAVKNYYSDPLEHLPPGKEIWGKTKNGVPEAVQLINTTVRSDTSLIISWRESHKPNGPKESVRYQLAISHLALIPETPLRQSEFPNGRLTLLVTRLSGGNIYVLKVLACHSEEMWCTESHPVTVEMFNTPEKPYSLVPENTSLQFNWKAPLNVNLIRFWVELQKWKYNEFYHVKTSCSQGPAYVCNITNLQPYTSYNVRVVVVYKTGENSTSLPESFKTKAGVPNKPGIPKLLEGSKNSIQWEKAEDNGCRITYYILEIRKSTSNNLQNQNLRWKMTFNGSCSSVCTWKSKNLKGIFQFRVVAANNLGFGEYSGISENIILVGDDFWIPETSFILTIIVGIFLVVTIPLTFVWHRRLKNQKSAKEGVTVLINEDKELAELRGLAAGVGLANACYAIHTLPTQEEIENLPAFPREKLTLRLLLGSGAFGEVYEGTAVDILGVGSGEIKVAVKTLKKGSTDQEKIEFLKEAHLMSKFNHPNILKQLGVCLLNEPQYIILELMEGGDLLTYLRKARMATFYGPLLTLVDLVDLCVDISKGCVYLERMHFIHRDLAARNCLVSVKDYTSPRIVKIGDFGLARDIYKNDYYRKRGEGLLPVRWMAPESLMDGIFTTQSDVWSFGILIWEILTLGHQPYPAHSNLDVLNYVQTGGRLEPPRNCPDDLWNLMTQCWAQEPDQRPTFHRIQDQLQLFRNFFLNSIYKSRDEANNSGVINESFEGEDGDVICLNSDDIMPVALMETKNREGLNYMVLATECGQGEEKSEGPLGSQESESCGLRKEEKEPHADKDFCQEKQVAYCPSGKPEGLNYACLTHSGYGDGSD
# EXPERIMENT_DESCRIPTION: In vitro kinase activity assay (LANCE TR-FRET)
# Format: biochemical
# MEASUREMENT_PARAMETERS: read-out: ROS (nM) IC50
EXPERIMENTAL_ENDPOINT: IC50 (nM)

Known IC50 results, listed for orientation:
Cc1c2c(cc3[nH]c(-c4c(NC(C)Cc5c(F)c(F)cc(F)c5F)cc[nH]c4=O)nc13)C(=O)N(C1CCN(C)CC1)C2 (centres unmarked) [Compound 24A]: 2.37
CC(Cc1cc(F)ccc1F)Nc1cc[nH]c(=O)c1-c1nc2cc3c(cc2[nH]1)CN(C)C3=O (centres unmarked): 0.74
C[C@@H](Cc1c(F)c(F)cc(F)c1F)Nc1cc[nH]c(=O)c1-c1nc2cc3c(cc2[nH]1)CN(CCN(C)C)C3=O: 0.205

(P) CC(Cc1cc(F)ccc1F)Nc1cc[nH]c(=O)c1-c1nc2cc3c(cc2[nH]1)C(=O)N(CCN(C)C)C3 (racemic)
(Q) CC(Cc1cc(F)ccc1F)Nc1cc[nH]c(=O)c1-c1nc2cc3c(cc2[nH]1)CNC3=O (centres unmarked)
(R) CC(Cc1c(F)c(F)cc(F)c1F)Nc1cc[nH]c(=O)c1-c1nc2cc3c(cc2n1C)C(=O)N(C)C3 (centres unmarked) [Compound 43a]
(S) C[C@@H](Cc1c(F)c(F)cc(F)c1F)Nc1cc[nH]c(=O)c1-c1nc2cc3c(cc2[nH]1)C(=O)N(CCN(C)C)C3=O
(T) CC(Cc1c(F)c(F)cc(F)c1F)Nc1cc[nH]c(=O)c1-c1nc2cc3c(cc2[nH]1)C(=O)N(C)C3=O (centres unmarked)
**Q:** Please list these in order of increasing IC50. Thank you! State the ranking by listing the labels in the requested order.
**A:** S, P, Q, T, R

----------
Below is a list of entries, each paired with its recorded IC50 value.
# MEASURED_ON: cMET (Homo sapiens (Human))
# Sequence (P08581 25-1390): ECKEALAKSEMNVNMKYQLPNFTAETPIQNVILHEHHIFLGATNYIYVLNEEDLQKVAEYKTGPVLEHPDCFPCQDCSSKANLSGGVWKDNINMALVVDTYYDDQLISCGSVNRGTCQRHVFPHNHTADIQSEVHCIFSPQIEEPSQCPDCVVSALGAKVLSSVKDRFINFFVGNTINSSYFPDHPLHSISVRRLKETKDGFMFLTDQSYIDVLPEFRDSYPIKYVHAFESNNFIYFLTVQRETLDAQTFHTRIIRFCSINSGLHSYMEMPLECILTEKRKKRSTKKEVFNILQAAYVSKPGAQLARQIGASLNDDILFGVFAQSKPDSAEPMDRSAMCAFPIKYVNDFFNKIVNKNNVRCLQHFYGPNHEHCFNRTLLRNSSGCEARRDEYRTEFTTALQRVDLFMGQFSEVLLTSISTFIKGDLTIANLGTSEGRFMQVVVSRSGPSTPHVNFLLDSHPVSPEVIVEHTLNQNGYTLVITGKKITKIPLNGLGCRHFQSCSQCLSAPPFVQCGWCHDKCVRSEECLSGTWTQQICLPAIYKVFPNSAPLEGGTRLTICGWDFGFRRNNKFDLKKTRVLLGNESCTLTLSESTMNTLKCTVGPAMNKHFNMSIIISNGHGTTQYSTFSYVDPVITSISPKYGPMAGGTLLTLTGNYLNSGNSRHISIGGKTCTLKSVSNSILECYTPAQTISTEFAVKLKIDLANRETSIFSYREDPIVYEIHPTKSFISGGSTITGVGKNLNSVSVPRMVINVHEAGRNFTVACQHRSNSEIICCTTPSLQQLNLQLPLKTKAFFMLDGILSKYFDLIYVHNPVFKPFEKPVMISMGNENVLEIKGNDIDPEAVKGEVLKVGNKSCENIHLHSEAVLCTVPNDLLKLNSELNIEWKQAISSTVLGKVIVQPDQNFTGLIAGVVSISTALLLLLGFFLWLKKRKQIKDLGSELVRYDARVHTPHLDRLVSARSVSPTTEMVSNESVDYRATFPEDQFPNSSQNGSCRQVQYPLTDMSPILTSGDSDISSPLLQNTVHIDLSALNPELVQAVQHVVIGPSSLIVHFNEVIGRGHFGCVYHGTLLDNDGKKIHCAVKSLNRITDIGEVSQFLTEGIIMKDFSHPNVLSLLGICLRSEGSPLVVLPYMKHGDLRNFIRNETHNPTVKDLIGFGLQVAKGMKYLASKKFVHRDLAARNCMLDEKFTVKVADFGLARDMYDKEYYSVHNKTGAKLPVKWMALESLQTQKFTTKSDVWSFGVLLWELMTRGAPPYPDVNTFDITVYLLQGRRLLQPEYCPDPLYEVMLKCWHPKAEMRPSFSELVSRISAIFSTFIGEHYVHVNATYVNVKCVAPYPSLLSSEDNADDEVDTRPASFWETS
# EXPERIMENT_DESCRIPTION: In vitro kinase activity assay (LANCE TR-FRET)
# Assay type: biochemical

C[C@@H](Cc1c(F)c(F)cc(F)c1F)Nc1cc[nH]c(=O)c1-c1nc2cc3c(cc2[nH]1)C(=O)N(c1cccnc1)C3=O: > 10000 nM
COC1c2cc3nc(-c4c(N[C@@H](C)Cc5c(F)c(F)cc(F)c5F)cc[nH]c4=O)[nH]c3cc2C(=O)N1c1cccnc1 (some centres unmarked): > 10000 nM
CC(Cc1cc(F)ccc1F)Nc1cc[nH]c(=O)c1-c1nc2cc3c(cc2[nH]1)C(=O)N(CCN(C)C)C3 (racemic): 1000 to 3000 nM
C[C@@H](Cc1c(F)c(F)cc(F)c1F)Nc1cc[nH]c(=O)c1-c1nc2cc3c(cc2[nH]1)C(O)N(c1cccnc1)C3=O (some centres unmarked): > 10000 nM

// below: IC50 requested for another compound
**Q:** Would you mind telling me what IC50 value was observed for C[C@@H](Cc1c(F)c(F)cc(F)c1F)Nc1cc[nH]c(=O)c1-c1nc2cc3c(cc2[nH]1)C(=O)N(CCN(C)C)C3=O ?
**A:** 14 nM

----------
# MEASURED_ON: ROS (Homo sapiens (Human), UniProt P08922)
# EXPERIMENT_DESCRIPTION: In vitro kinase activity assay (LANCE TR-FRET)
# Assay type: biochemical
# MEASUREMENT_PARAMETERS: read-out: GTx-ROS IC50
EXPERIMENTAL_ENDPOINT: IC50 (nM)

(P) CC(Cc1c(F)c(F)cc(F)c1F)Nc1cc[nH]c(=O)c1-c1nc2cc3c(cc2[nH]1)C(=O)N(C)C3=O (stereo not drawn) [Compound 41]
(Q) CC(Cc1cc(F)ccc1F)Nc1cc[nH]c(=O)c1-c1nc2cc3c(cc2[nH]1)CN(C)C3=O (stereo not drawn) [Compound 33]
(R) CC(Cc1c(F)c(F)cc(F)c1F)Nc1cc[nH]c(=O)c1-c1nc2cc3c(cc2n1C)C(=O)N(C)C3 (stereo not drawn) [Compound 43a]
**Q:** Order all 3 entries above by recorded IC50, highest first, lowest last. State the ranking by listing the labels in the requested order.
**A:** R, P, Q

----------
# Test system: U937 lymphoma cells
# EXPERIMENT_DESCRIPTION: Cellular assay, 3 day cell viability (WST-1)
# Format: cell-based
# MEASUREMENT_PARAMETERS: Homo sapiens, U-937, 72 h; 3 days, WST-1; read-out: GTx-U937 IC50
Below is a list of entries, each paired with its recorded IC50 value.

Known IC50 results, listed for orientation:
Cc1ccc(F)cc1CC(C)Nc1cc[nH]c(=O)c1-c1nc2cc3c(cc2[nH]1)CN(C)C3=O (stereo not shown): > 3 µM
COc1cc([C@@H]2c3cc4c(cc3[C@H](O)[C@H]3COC(=O)[C@@H]23)OCO4)cc(OC)c1OC (racemic) [PPP, reference compound]: 0.138 µM
Cc1ccc(F)cc1CC(C)Nc1cc[nH]c(=O)c1-c1nc2cc3c(cc2[nH]1)C(=O)N(C(C)C)C3=O (stereo not shown): > 3 µM
CC(Cc1c(F)c(F)cc(F)c1F)Nc1cc[nH]c(=O)c1-c1nc2cc3c(cc2[nH]1)C(=O)N(C)C3 (stereo not shown): > 10 µM
CC(Cc1cc(F)ccc1F)Nc1cc[nH]c(=O)c1-c1nc2cc3c(cc2[nH]1)C(=O)N(CC(O)CO)C3=O (stereo not shown): > 10 µM
Cc1ccc(F)cc1CC(C)Nc1cc[nH]c(=O)c1-c1nc2cc3c(cc2[nH]1)CN(C(C)C)C3=O (stereo not shown): > 3 µM

// below: IC50 requested for another compound
**Q:** Would you mind telling me what IC50 value was observed for CC(Cc1cc(F)ccc1F)Nc1cc[nH]c(=O)c1-c1nc2cc3c(cc2[nH]1)CN(C)C3=O (stereo not shown) ?
**A:** > 10 µM

----------
# Tested on: U937 lymphoma cells
# EXPERIMENT_DESCRIPTION: Cellular assay, 3 day cell viability (WST-1)
# Assay type: cell-based
# MEASUREMENT_PARAMETERS: Homo sapiens, U-937, 72 h, read-out: GTx-U937 IC50 (uM)
EXPERIMENTAL_ENDPOINT: IC50 (µM)
Number in µM, nothing else.

**Q:** Would you mind telling me what IC50 value was observed for CC(Oc1cc(-c2cnn(C3CCNCC3)c2)cnc1N)c1c(Cl)ccc(F)c1Cl (racemic) [PF2341066, crizotinib, reference compound] ?
**A:** 1.67

----------
# Tested on: K299 lymphoma cells
# EXPERIMENT_DESCRIPTION: Cellular assay, 3 day cell viability (WST-1)
# Assay type: cell-based
# MEASUREMENT_PARAMETERS: 72 h, 3 days, read-out: GTx-K299 IC50
Below is a list of entries, each paired with its recorded IC50 value.

Known IC50 results, listed for orientation:
Cc1ccc(F)cc1CC(C)Nc1cc[nH]c(=O)c1-c1nc2cc3c(cc2[nH]1)C(=O)N(C(C)C)C3=O (stereo not drawn): > 3000 nM
Cc1ccc(F)cc1CC(C)Nc1cc[nH]c(=O)c1-c1nc2cc3c(cc2[nH]1)CN(C)C3=O (stereo not drawn): 798 nM
CC(Cc1c(F)c(F)cc(F)c1F)Nc1cc[nH]c(=O)c1-c1nc2cc3c(cc2[nH]1)C(=O)N(C)C3 (stereo not drawn): > 10000 nM
CC(Cc1c(F)c(F)cc(F)c1F)Nc1cc[nH]c(=O)c1-c1nc2cc3c(cc2n1C)CN(C)C3=O (stereo not drawn): > 10000 nM

**Q:** Would you mind telling me what IC50 value was observed for CC(Cc1cc(F)ccc1F)Nc1cc[nH]c(=O)c1-c1nc2cc3c(cc2[nH]1)CN(C)C3=O (stereo not drawn) ?
**A:** 532 nM

**Q:** Would you mind telling me what IC50 value was observed for CC(Cc1cc(F)ccc1F)Nc1cc[nH]c(=O)c1-c1nc2cc3c(cc2[nH]1)C(=O)N(CC(O)CO)C3=O (stereo not drawn) ?
**A:** > 10000 nM

----------
# MEASURED_ON: hERG potassium channel (Homo sapiens (Human), UniProt Q12809)
# Sequence (Q12809 whole entry): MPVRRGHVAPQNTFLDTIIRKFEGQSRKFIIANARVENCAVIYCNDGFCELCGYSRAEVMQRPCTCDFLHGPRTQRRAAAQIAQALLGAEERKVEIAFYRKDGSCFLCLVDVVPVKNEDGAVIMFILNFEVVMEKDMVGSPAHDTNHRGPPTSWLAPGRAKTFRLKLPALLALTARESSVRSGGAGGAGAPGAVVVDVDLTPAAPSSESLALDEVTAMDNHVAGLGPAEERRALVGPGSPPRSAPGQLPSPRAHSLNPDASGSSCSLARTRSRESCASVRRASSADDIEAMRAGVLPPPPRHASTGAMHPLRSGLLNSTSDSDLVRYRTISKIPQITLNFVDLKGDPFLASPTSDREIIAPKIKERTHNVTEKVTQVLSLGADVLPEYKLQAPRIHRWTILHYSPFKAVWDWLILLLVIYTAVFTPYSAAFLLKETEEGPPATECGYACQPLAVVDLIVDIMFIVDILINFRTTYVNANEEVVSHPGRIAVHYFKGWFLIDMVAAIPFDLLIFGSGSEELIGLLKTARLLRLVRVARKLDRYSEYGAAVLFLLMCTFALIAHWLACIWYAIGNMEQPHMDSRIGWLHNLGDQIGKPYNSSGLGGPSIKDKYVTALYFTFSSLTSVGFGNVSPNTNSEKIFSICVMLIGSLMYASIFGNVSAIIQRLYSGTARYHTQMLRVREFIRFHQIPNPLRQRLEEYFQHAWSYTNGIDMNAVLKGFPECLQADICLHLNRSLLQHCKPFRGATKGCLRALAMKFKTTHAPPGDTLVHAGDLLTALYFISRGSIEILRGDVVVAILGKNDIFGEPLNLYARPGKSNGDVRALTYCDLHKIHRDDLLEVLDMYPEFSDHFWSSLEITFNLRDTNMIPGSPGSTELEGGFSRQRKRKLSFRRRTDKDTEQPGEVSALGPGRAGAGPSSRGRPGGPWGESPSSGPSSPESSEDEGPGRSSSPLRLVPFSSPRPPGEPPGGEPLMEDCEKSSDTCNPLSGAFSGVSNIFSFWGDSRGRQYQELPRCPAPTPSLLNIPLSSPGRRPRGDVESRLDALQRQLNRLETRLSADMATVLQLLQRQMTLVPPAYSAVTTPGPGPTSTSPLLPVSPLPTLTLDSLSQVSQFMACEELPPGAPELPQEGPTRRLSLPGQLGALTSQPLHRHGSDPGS
# EXPERIMENT_DESCRIPTION: hERG potassium channel current, automated patch clamp (PatchXpress 7000A);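 also: Four-point series of 0.3, 3, 10 and 30 µM, two cells recorded per concentration, 5 min exposure at each level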
# MEASUREMENT_PARAMETERS: human, Mean % hERG Inhibition, 0.3 μM
EXPERIMENTAL_ENDPOINT: inhibition at 5 min, 0.3 µM (%)
Number in %, nothing else.

**Q:** Would you mind telling me what inhibition at 5 min, 0.3 µM value was observed for C[C@@H](Cc1c(F)c(F)cc(F)c1F)Nc1cc[nH]c(=O)c1-c1nc2cc3c(cc2[nH]1)CN(CCN(C)C)C3=O ?
**A:** 5.5
